# Assay notes: qHTS assay to identify small molecule antagonists of the vitamin D receptor (VDR) signaling pathway - cell viability counter screen (AID 743225); also: nearly all actives have a fitted effect of over 50% in size
# Recorded conditions: VDR-bla HEK293T viability, CellTiter-Glo luminescence, 16 h; series mostly up to 61 µM
# From the text: U.S. Tox21 Program National Center for Advancing Translational Sciences [NCATS] NIH Chemical Genomics Center [NCGC] U.S. Environmental Protection Agency [EPA] National Institutes of Environmental Health Sciences [NIEHS] National Toxicology Program [NTP] U.S. Food and Drug Administration [FDA] Tox21 Assay Overview: The vitamin D receptor (VDR), a member of nuclear hormone receptor superfamily, plays a critical role in calcium homeostasis and bone metabolism. […]
Results filed as inconclusive are left out. Activity calls are given as the source filed them. Calls follow the shape of the dose curve; as a rule, active = well fitted cell-killing curve with a large enough effect in the repeat runs; inconclusive = weak or mixed curves, or effect the other way; inactive = no such curve, though single readings can be large or run the other way.
Possible outcomes: active, inactive

>  <Molecule>
CN(C[C@@H](CC[N+]12CCC(C3CCCCC3)(CC1)CC2)c1ccc(Cl)c(Cl)c1)C(=O)c1cc(C(F)(F)F)cc(C(F)(F)F)c1

>  <Category label>
active

$$$$
>  <Molecule>
CCCCCCCCOC(=O)c1cc(O)c(O)c(O)c1

>  <Category label>
active

$$$$
>  <Molecule>
O=[N+]([O-])c1ccc(O)c2ncccc12

>  <Category label>
inactive

$$$$
>  <Molecule>
C=CCc1cc(S(=O)(=O)c2ccc(O)c(CC=C)c2)ccc1O

>  <Category label>
inactive

$$$$
>  <Molecule>
Cc1ccc2nc(-c3ccc(N)cc3)sc2c1S(=O)(=O)O

>  <Category label>
inactive

$$$$
>  <Molecule>
CC1=C(/C=C/C(C)=C/C=C/C(C)=C\C(=O)O)C(C)(C)CCC1

>  <Category label>
inactive

$$$$
>  <Molecule>
CN[C@H]1CC[C@@H](c2ccc(Cl)c(Cl)c2)c2ccc(S(N)(=O)=O)cc21

>  <Category label>
active

$$$$
>  <Molecule>
Cc1cc(Br)ccc1NC(=O)CCl

>  <Category label>
active

$$$$
>  <Molecule>
CCCCCCCC/C=C\CCCCCCCC(=O)N(CCO)CCO

>  <Category label>
inactive

$$$$
>  <Molecule>
O=C(CCN1CCC(c2ccccc2)C1)c1ccc2c(c1)OCCO2 (stereo unspecified)

>  <Category label>
inactive

$$$$
>  <Molecule>
C=C1C(CCl)(CCl)C2(Cl)C(Cl)C(Cl)C1(Cl)C2(Cl)Cl (stereo unspecified)

>  <Category label>
active

$$$$
